biological target: CyclinE1/CDK2 (Homo sapiens); construct: purchased Eurofins, discovery 14-475; test: Fluorescence Polarization (FP) competitive binding assay, Cyclin E1/Cdk2; details: 10 nM Cyclin E1/Cdk2, 2 nM FAM probe; average of 2-3 independent experiments; read-out: Cyclin E FP IC50;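 further: readings taken after two-hour equilibration at room temperature in HEPES buffer with NaCl, DTT, NP-40 and BSA, IC50 fitted from eight-concentration serial dilution series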
*1 amine or outer side, *2 acyl side, *3 side chain or, on linkers, in order; H or OH if unused. Where a SMILES comes first, the peptide text is derived from it. Bridges are numbered along the chain shown (N, C = ends). [ ]: non-standard residue; d: D form. The star is where a group is joined. X124 = CC(C)C(=O)N1[C@@H]2CC[C@H]1C=C(c1ccc(F)cc1C[C@@H](C(=O)[*:2])N(C)[*:1])C2; X137 = CN([C@@H](Cc1cc(F)ccc1-c1cnn(S(C)(=O)=O)c1)C(=O)[*:2])[*:1]; NMehhhLys(Me) = CN([C@@H](CCCCCCCN(C)[*:3])C(=O)[*:2])[*:1]; cBuCO(3,3-F2-1-CF3) = O=C(C1(C(F)(F)F)CC(F)(F)C1)*; Pro(trans-4-F) = O=C(O)[C@@H]1C[C@@H](F)CN1; Pivaloyl(3,3,3-F3) = CC(C)(C(=O)*)C(F)(F)F; Gly(cPr) = N[C@H](C(=O)O)C1CC1
parameter_measured: IC50 (µM)
Just the number in µM, nothing appended.

Return value of IC50 for input CC(C)C[C@@H]1NC(=O)[C@@H](N(C)C(=O)[C@@H](NC(=O)[C@@H]2C[C@@H](F)CN2C(=O)C2(C(F)(F)F)CC(F)(F)C2)C2CC2)CC=CCCCCN(C)C(=O)[C@H](Cc2cc(Cl)ccc2Oc2ncccn2)N(C)C1=O [Example 153] , no commentary.
1

Retrieve IC50 measured for CC(C)C[C@@H]1NC(=O)[C@@H](N(C)C(=O)[C@@H](NC(=O)[C@@H]2C[C@@H](F)CN2C(=O)C(C)(C)C(F)(F)F)C2CC2)CCCCCCCN(C)C(=O)[C@H](Cc2cc(F)ccc2-c2cnn(S(C)(=O)=O)c2)N(C)C1=O [Example 304] ({Pivaloyl(3,3,3-F3)}-[Pro(trans-4-F)][Gly(cPr)][NMehhhLys(Me)]L[X137]; lactam 3-C) and print it.
0.19

Report IC50 for CC(C)C[C@@H]1NC(=O)[C@@H](N(C)C(=O)[C@@H](NC(=O)[C@@H]2C[C@@H](F)CN2C(=O)C2(C(F)(F)F)CC(F)(F)C2)C2CC2)CCCCCCCN(C)C(=O)[C@H](Cc2cc(F)ccc2C2=C[C@@H]3CC[C@H](C2)N3C(=O)C(C)C)N(C)C1=O [Example 317] ({cBuCO(3,3-F2-1-CF3)}-[Pro(trans-4-F)][Gly(cPr)][NMehhhLys(Me)]L[X124]; lactam 3-C)
0.25

====

Provide the recorded pIC50 for the entries that follow.
molecular target: CyclinA2/CDK2 (Homo sapiens); construct: purchased CRELUX Protein Services; assay: Fluorescence Polarization (FP) competitive binding assay, Cyclin A2/Cdk2; details: 8 nM Cyclin A2/Cdk2, 2 nM FAM probe; average of 2-3 independent experiments; read-out: Cyclin A FP IC50
*1 amine or outer side, *2 acyl side, *3 side chain or, on linkers, in order; H or OH if unused. Where a SMILES comes first, the peptide text is derived from it. Bridges are numbered along the chain shown (N, C = ends). [ ]: non-standard residue; d: D form. The star is where a group is joined. X76 = CN([C@@H](Cc1cc(Cl)ccc1-c1cnn2cccnc12)C(=O)[*:2])[*:1]; NMehhhLys(Me) = CN([C@@H](CCCCCCCN(C)[*:3])C(=O)[*:2])[*:1]; X174 = CN([C@@H](Cc1cc(Cl)cnc1-c1cnn(C)c1)C(=O)[*:2])[*:1]; Cyclobutanecarbonyl(1-CF3) = O=C(C1(C(F)(F)F)CCC1)*; cBuCO(3,3-F2-1-CF3) = O=C(C1(C(F)(F)F)CC(F)(F)C1)*; Pro(trans-4-F) = O=C(O)[C@@H]1C[C@@H](F)CN1; Gly(cPr) = N[C@H](C(=O)O)C1CC1
Scale for pIC50: -log10 of concentration given in mol/L; no unit attached.

Kindly indicate its recorded pIC50. Item: CC(C)C[C@@H]1NC(=O)[C@@H](N(C)C(=O)[C@@H](NC(=O)[C@@H]2C[C@@H](F)CN2C(=O)C2(C(F)(F)F)CCC2)C2CC2)CCCCCCCN(C)C(=O)[C@H](Cc2cc(Cl)cnc2-c2cnn(C)c2)N(C)C1=O [Example 247] ({Cyclobutanecarbonyl(1-CF3)}-[Pro(trans-4-F)][Gly(cPr)][NMehhhLys(Me)]L[X174]; lactam 3-C)
7.70

Indicate its recorded pIC50; the compound in question is `CC(C)C[C@@H]1NC(=O)[C@@H](N(C)C(=O)[C@@H](NC(=O)[C@@H]2C[C@@H](F)CN2C(=O)C2(C(F)(F)F)CC(F)(F)C2)C2CC2)CC=CCCCCN(C)C(=O)[C@H](Cc2cc(F)ccc2-c2cnn(C3CCOCC3)c2)N(C)C1=O`
7.30

Determine its reported pIC50: `CC(C)C[C@@H]1NC(=O)[C@@H](NC(=O)[C@@H](NC(=O)[C@@H]2C[C@@H](F)CN2C(=O)C2(C(F)(F)F)CC(F)(F)C2)C2CC2)CC=CCCCCN(C)C(=O)[C@H](Cc2cc(Cl)ccc2Cl)N(C)C1=O`
7.22

Indicate the recorded pIC50 value for this compound: CC(C)C[C@@H]1NC(=O)[C@@H](N(C)C(=O)[C@@H](NC(=O)[C@@H]2C[C@@H](F)CN2C(=O)C2(C(F)(F)F)CC(F)(F)C2)C2CC2)CCCCCCCN(C)C(=O)[C@H](Cc2cc(Cl)ccc2-c2cnn3cccnc23)N(C)C1=O [Example 297] ({cBuCO(3,3-F2-1-CF3)}-[Pro(trans-4-F)][Gly(cPr)][NMehhhLys(Me)]L[X76]; lactam 3-C)
7.40

====

Please respond with reported pIC50 for every item in the list.
biological target: CyclinA2/CDK2 (Homo sapiens); construct: purchased CRELUX Protein Services; experiment: Fluorescence Polarization (FP) competitive binding assay, Cyclin A2/Cdk2; details: 8 nM Cyclin A2/Cdk2, 2 nM FAM probe; average of 2-3 independent experiments; read-out: Cyclin A FP IC50;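 further: plates equilibrated two hours at room temperature before polarization reading, IC50 fitted from eight-concentration compound titration curves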
*1 amine or outer side, *2 acyl side, *3 side chain or, on linkers, in order; H or OH if unused. Where a SMILES comes first, the peptide text is derived from it. Bridges are numbered along the chain shown (N, C = ends). [ ]: non-standard residue; d: D form. The star is where a group is joined. X165 = CN([C@@H](Cc1cc(Cl)ccc1-c1ccc(N2CCOCC2)c(Cl)c1)C(=O)[*:2])[*:1]; NMehhhLys(Me) = CN([C@@H](CCCCCCCN(C)[*:3])C(=O)[*:2])[*:1]; NMe3Pal(2-OiPr,5-Cl) = CN[C@@H](Cc1cc(Cl)cnc1OC(C)C)C(=O)O; NMe(hhhLys) = CN([C@@H](CCCCCCCN[*:3])C(=O)[*:2])[*:1]; cBuCO(3,3-F2-1-CF3) = O=C(C1(C(F)(F)F)CC(F)(F)C1)*; X4 = Cc1ccc(Cl)cc1C[C@@H](C(=O)[*:2])N(C)[*:1]; Pro(trans-4-F) = O=C(O)[C@@H]1C[C@@H](F)CN1; Gly(cPr) = N[C@H](C(=O)O)C1CC1
FYI, pIC50 means -log10 of a concentration in mol per litre.

For CyclinA2/CDK2 (Homo sapiens), give pIC50 of the listed compound: Cc1ccc(Cl)cc1C[C@H]1C(=O)N(C)CCCCCCC[C@H](N(C)C(=O)[C@@H](NC(=O)[C@@H]2C[C@@H](F)CN2C(=O)C2(C(F)(F)F)CC(F)(F)C2)C2CC2)C(=O)N[C@@H](CC(C)C)C(=O)N1C [Example 263] ({cBuCO(3,3-F2-1-CF3)}-[Pro(trans-4-F)][Gly(cPr)][NMehhhLys(Me)]L[X4]; lactam 3-C)
7.52

System CyclinA2/CDK2 (Homo sapiens). Read-out pIC50. Item CC(C)C[C@@H]1NC(=O)[C@@H](N(C)C(=O)[C@@H](NC(=O)[C@@H]2C[C@@H](F)CN2C(=O)C2(C(F)(F)F)CC(F)(F)C2)C2CC2)CCCCCCCN(C)C(=O)[C@H](Cc2cc(Cl)ccc2-c2ccc(N3CCOCC3)c(Cl)c2)N(C)C1=O [Example 345] ({cBuCO(3,3-F2-1-CF3)}-[Pro(trans-4-F)][Gly(cPr)][NMehhhLys(Me)]L[X165]; lactam 3-C) . Report value.
7.52

Specify pIC50 for CC(C)C[C@@H]1NC(=O)[C@@H](N(C)C(=O)[C@@H](NC(=O)[C@@H]2C[C@@H](F)CN2C(=O)C2(C(F)(F)F)CC(F)(F)C2)C2CC2)CCCCCCCNC(=O)[C@H](Cc2cc(Cl)cnc2OC(C)C)N(C)C1=O [Example 131] ({cBuCO(3,3-F2-1-CF3)}-[Pro(trans-4-F)][Gly(cPr)][NMe(hhhLys)]L[NMe3Pal(2-OiPr,5-Cl)]; lactam 3-C) , system CyclinA2/CDK2 (Homo sapiens).
7.52
